# Test system: Caco-2 cell monolayer
# experiment.description: Caco-2 monolayer transport (bioavailability) study, AB and BA directions
# Assay type: in vitro ADME, Homo sapiens
# experimental.setup: BA experiment, donor side, S2 (22 mg/mL GSE), 0 min
Marks after values point to notes of the source that are not given here.
measured.endpoint: Basolateral Side 0 min

O=c1c(O[C@@H]2O[C@H](CO)[C@@H](O)[C@H](O)[C@H]2O)c(-c2ccc(O)c(O)c2)oc2cc(O)cc(O)c12 [Q3G, quercetin-3-glucoside] : 0.41 ± 0.03 ^a mg/L
OC[C@H]1O[C@@H](Oc2cc3c(O)cc(O)cc3[o+]c2-c2cc(O)c(O)c(O)c2)[C@H](O)[C@@H](O)[C@@H]1O [D3G, delphinidin-3-O-glucoside] : 3.6 ± 0.2 ^a mg/L
O=c1c(O[C@@H]2O[C@H](CO)[C@@H](O)[C@H](O)[C@H]2O)c(-c2ccc(O)cc2)oc2cc(O)cc(O)c12 [K3G, kaempferol-3-glucoside] : 9.8 ± 0.2 ^a mg/L
O=C(O)c1cc(O)c(O)c(O)c1 : 6.1 ± 0.4 ^a mg/L
O=C(/C=C/c1ccc(O)c(O)c1)O[C@@H](C(=O)O)[C@@H](O)C(=O)O : 1.4 ± 0.1 ^a mg/L
O=c1c(OC2O[C@H](CO)[C@H](O)[C@H](O)[C@H]2O)c(-c2ccc(O)cc2)oc2cc(O)cc(O)c12 (stereo partly drawn) [K3Gal, kaempferol-3-galactoside] : 0.79 ± 0.02 ^a mg/L

----------
# System: Caco-2 cell monolayer
# experiment.description: Caco-2 monolayer transport (bioavailability) study, AB and BA directions
# Format: in vitro ADME, Homo sapiens
# experimental.setup: BA experiment, acceptor side, S1 (15 mg/mL GSE), 180 min
Marks after values point to notes of the source that are not given here.
This section presents compounds with their documented Apical Side 180 min values.
measured.endpoint: Apical Side 180 min

O=C(O)c1cc(O)c(O)c(O)c1 : 11.3 ± 0.3 ^d mg/L
O=C(/C=C/c1ccc(O)c(O)c1)O[C@@H](C(=O)O)[C@@H](O)C(=O)O : 0.12 ± 0.01 ^c mg/L
O=c1c(O[C@@H]2O[C@H](CO)[C@@H](O)[C@H](O)[C@H]2O)c(-c2ccc(O)cc2)oc2cc(O)cc(O)c12 [K3G, kaempferol-3-glucoside] : 9.9 ± 0.4 ^c mg/L
COc1cc(-c2[o+]c3cc(O)cc(O)c3cc2O[C@@H]2O[C@H](CO)[C@@H](O)[C@H](O)[C@H]2O)cc(OC)c1O [M3G, malvidin-3-O-glucoside] : 0.33 ± 0.02 ^c mg/L
O=c1c(O[C@@H]2O[C@H](CO)[C@@H](O)[C@H](O)[C@H]2O)c(-c2ccc(O)c(O)c2)oc2cc(O)cc(O)c12 [Q3G, quercetin-3-glucoside] : 0.011 ± 0.001 ^c mg/L

----------
# experiment.description: Caco-2 monolayer transport (bioavailability) study, AB and BA directions
# Assay type: in vitro ADME, Homo sapiens
# experimental.setup: human, Caco-2; basolateral to apical, S2 (22 mg/mL GSE)
measured.endpoint: Papp B→A at 180 min, 22 mg/mL (×10⁻⁶ cm/s)

O=c1c(O[C@@H]2O[C@H](CO)[C@@H](O)[C@H](O)[C@H]2O)c(-c2ccc(O)cc2)oc2cc(O)cc(O)c12 [K3G, kaempferol-3-glucoside] : 970
COc1cc(-c2[o+]c3cc(O)cc(O)c3cc2O[C@@H]2O[C@H](CO)[C@@H](O)[C@H](O)[C@H]2O)cc(OC)c1O [M3G, malvidin-3-O-glucoside] : 18
O=C(/C=C/c1ccc(O)c(O)c1)O[C@@H](C(=O)O)[C@@H](O)C(=O)O : 73
O=C(O)c1cc(O)c(O)c(O)c1 : 1290

----------
# System: Caco-2 cell monolayer
# experiment.description: Caco-2 monolayer transport (bioavailability) study, AB and BA directions
# Format: in vitro ADME, Homo sapiens
# experimental.setup: BA experiment, donor side, S2 (22 mg/mL GSE), 90 min
Marks after values point to notes of the source that are not given here.
This section presents molecules with their documented Basolateral Side 90 min values.
measured.endpoint: Basolateral Side 90 min

COc1cc(C(=O)O)cc(OC)c1O : 1.03 ± 0.09 ^a,b,c mg/L
O=c1c(O[C@@H]2O[C@H](CO)[C@@H](O)[C@H](O)[C@H]2O)c(-c2ccc(O)c(O)c2)oc2cc(O)cc(O)c12 [Q3G, quercetin-3-glucoside] : 0.36 ± 0.03 ^a,b,c mg/L
O=C(O)c1cc(O)c(O)c(O)c1 : 5.4 ± 0.4 ^c mg/L
O=C(/C=C/c1ccc(O)c(O)c1)O[C@@H](C(=O)O)[C@@H](O)C(=O)O : 1.23 ± 0.09 ^c mg/L
O=c1c(OC2O[C@H](CO)[C@H](O)[C@H](O)[C@H]2O)c(-c2ccc(O)cc2)oc2cc(O)cc(O)c12 (stereo partly drawn) [K3Gal, kaempferol-3-galactoside] : 0.71 ± 0.02 ^c mg/L
OC[C@H]1O[C@@H](Oc2cc3c(O)cc(O)cc3[o+]c2-c2cc(O)c(O)c(O)c2)[C@H](O)[C@@H](O)[C@@H]1O [D3G, delphinidin-3-O-glucoside] : 3.4 ± 0.2 ^a mg/L
COc1cc(-c2[o+]c3cc(O)cc(O)c3cc2O[C@@H]2O[C@H](CO)[C@@H](O)[C@H](O)[C@H]2O)cc(OC)c1O [M3G, malvidin-3-O-glucoside] : 15.4 ± 0.3 ^c mg/L
COc1cc(-c2[o+]c3cc(O)cc(O)c3cc2O[C@@H]2O[C@H](CO)[C@@H](O)[C@H](O)[C@H]2O)cc(O)c1O [Pet3G, petunidin-3-O-glucoside] : 2.9 ± 0.2 ^a mg/L
O=c1c(O[C@@H]2O[C@H](CO)[C@@H](O)[C@H](O)[C@H]2O)c(-c2ccc(O)cc2)oc2cc(O)cc(O)c12 [K3G, kaempferol-3-glucoside] : 9.3 ± 0.2 ^c mg/L

----------
# Test system: Caco-2 cell monolayer
# experiment.description: Caco-2 monolayer transport (bioavailability) study, AB and BA directions
# Assay type: in vitro ADME, Homo sapiens
# experimental.setup: AB experiment, donor side, S2 (22 mg/mL GSE), 75 min
Marks after values point to notes of the source that are not given here.
This section presents compounds with their documented Apical Side 75 min values.
measured.endpoint: Apical Side 75 min

O=C(/C=C/c1ccc(O)c(O)c1)O[C@@H](C(=O)O)[C@@H](O)C(=O)O : 1.54 ± 0.03 ^b mg/L
COc1cc(-c2[o+]c3cc(O)cc(O)c3cc2O[C@@H]2O[C@H](CO)[C@@H](O)[C@H](O)[C@H]2O)cc(OC)c1O [M3G, malvidin-3-O-glucoside] : 11.6 ± 0.9 ^b mg/L
COc1cc(C(=O)O)cc(OC)c1O : 1.21 ± 0.04 ^b mg/L
COc1cc(-c2[o+]c3cc(O)cc(O)c3cc2O[C@@H]2O[C@H](CO)[C@@H](O)[C@H](O)[C@H]2O)cc(O)c1O [Pet3G, petunidin-3-O-glucoside] : 4.0 ± 0.1 ^b mg/L
OC[C@H]1O[C@@H](Oc2cc3c(O)cc(O)cc3[o+]c2-c2cc(O)c(O)c(O)c2)[C@H](O)[C@@H](O)[C@@H]1O [D3G, delphinidin-3-O-glucoside] : 4.4 ± 0.1 ^b mg/L
O=c1c(O[C@@H]2O[C@H](CO)[C@@H](O)[C@H](O)[C@H]2O)c(-c2ccc(O)c(O)c2)oc2cc(O)cc(O)c12 [Q3G, quercetin-3-glucoside] : 0.52 ± 0.01 ^b mg/L

----------
# Tested on: Caco-2 cell monolayer
# experiment.description: Caco-2 monolayer transport (bioavailability) study, AB and BA directions
# Format: in vitro ADME, Homo sapiens
# experimental.setup: BA experiment, donor side, S2 (22 mg/mL GSE), 115 min
Marks after values point to notes of the source that are not given here.
measured.endpoint: Basolateral Side 115 min

COc1cc(-c2[o+]c3cc(O)cc(O)c3cc2O[C@@H]2O[C@H](CO)[C@@H](O)[C@H](O)[C@H]2O)cc(O)c1O [Pet3G, petunidin-3-O-glucoside] : 2.7 ± 0.2 ^a mg/L
COc1cc(-c2[o+]c3cc(O)cc(O)c3cc2O[C@@H]2O[C@H](CO)[C@@H](O)[C@H](O)[C@H]2O)cc(OC)c1O [M3G, malvidin-3-O-glucoside] : 14.5 ± 0.3 ^c,d mg/L
O=c1c(O[C@@H]2O[C@H](CO)[C@@H](O)[C@H](O)[C@H]2O)c(-c2ccc(O)c(O)c2)oc2cc(O)cc(O)c12 [Q3G, quercetin-3-glucoside] : 0.34 ± 0.03 ^b,c mg/L
O=C(/C=C/c1ccc(O)c(O)c1)O[C@@H](C(=O)O)[C@@H](O)C(=O)O : 1.15 ± 0.08 ^d mg/L
O=C(O)c1cc(O)c(O)c(O)c1 : 5.0 ± 0.4 ^d mg/L

Data origin, for the record: paper PMC12248599
